system: OVCAR-3; assay: NCI tumour cell line growth inhibition, 48 h
Active and inactive are the calls of the source. Cut-off read from the data, not from the text of the source: active = GI50 up to about 1.1 µM and inactive = higher.
In this exercise, the only acceptable responses are 1.0 for active, 0.0 for inactive

Reference set, count: 5
{"columns": ["compound", "category label"],
 "data": [
  ["Cc1ccc2c(ccc(/C=C\\c3cc(C)c4cccnc4c3O)[n+]2C)c1", 0.0],
  ["CCC1(O)C(=O)OCc2c1cc1n(c2=O)Cc2c-1nc1ccccc1c2OC (stereo unspecified)", 1.0],
  ["COc1ccc(Cc2n[nH]c(Nc3ccc(Br)cc3)nc2=O)cc1OC", 0.0],
  ["CC(=O)Nc1ccc(-c2nnc(SCC(=O)Nc3cccc(Cl)c3)o2)cc1", 0.0],
  ["COc1ccc2o/c(=N/c3ccccc3)c(C(N)=O)cc2c1", 0.0]
]}

Q: Give the logged outcome of this assay for the following compound: Cc1ccc(S(=O)(=O)N/N=C2\CCCCC23CCC(=O)NC3)cc1 (stereo unspecified)
A: 0.0

Q: Give the logged outcome of this assay for the following compound: O=C1c2ccccc2C(=O)c2c(O)c(NCCCNCCO)cc(O)c21
A: 0.0

Q: Give the logged outcome of this assay for the following compound: CC(/C=N\NC(=S)N(C)C)=N/NC(=S)N(C)C
A: 1.0

Q: Give the logged outcome of this assay for the following compound: COC(CO[Si](C)(C)N[Si](C)(C)OCC(OC)c1ccccc1)c1ccccc1 (stereo unspecified)
A: 0.0

Q: Give the logged outcome of this assay for the following compound: CCN(CC)CC(C(=O)Nc1c(C)cccc1C)/C(C)=N\NC(=O)c1ccncc1 (stereo unspecified)
A: 0.0

Q: Give the logged outcome of this assay for the following compound: CCCCOC(=O)C1CN2C(=NC1(C(F)(F)F)C(F)(F)F)Sc1ccccc12 (stereo unspecified)
A: 0.0

###

test system: MDA-N; assay: NCI tumour cell line growth inhibition, 48 h
Activity calls are given as the source filed them. Rule as the data show it: active = GI50 up to about 1.1 µM and inactive = higher.
The following compounds are shown together with reported GI50 values.

{"columns": ["compound", "reported property", "endpoint result"],
 "data": [
  ["[N-]=[N+]=C(C(=O)OCC#CCOC(=O)C(=[N+]=[N-])S(=O)(=O)c1ccccc1)S(=O)(=O)c1ccccc1", "GI50", "> 10 µM (inactive)"],
  ["CCCCS(=N)(=O)CC[C@H](N)C(=O)O (stereo not given in full)", "GI50", "> 10000 µM (inactive)"],
  ["CCOC(=O)C(C)c1nc2cc(N3CCOCC3)c(F)cc2[nH]c1=O (stereo not given)", "GI50", "> 100 µM (inactive)"],
  ["Cc1cc([N+](=O)[O-])c(C)c(Br)c1C", "GI50", "> 100 µM (inactive)"],
  ["C=CC1(CC[C@]2(c3ccc(OC)c(OC)c3)C=[N+]([O-])O[C@H](O[C@@H]3CCCC[C@H]3C(C)(C)c3ccccc3)C2)OCC(C)(C)CO1", "GI50", "6.11 µM (inactive)"],
  ["N=C(N)NNC(=O)C(=O)O", "GI50", "> 100 µM (inactive)"]
]}

Measured GI50, CCOP(=O)(OCC)/C(=C\n1c(=S)[nH]c2cc(C)ccc21)C(=O)OC : > 100 µM (inactive)

Measured GI50, CC1OC(n2cc(F)c(=O)[nH]c2=O)C(O[Si](C)(C)C(C)(C)C)C1O[Si](C)(C)C(C)(C)C (stereo not given) : 15.5 µM (inactive)

Measured GI50, O=c1c(-c2ccccc2Cl)coc2cc(F)ccc12 : 3.79 µM (inactive)

Measured GI50, C=C1CC(C)(c2cccc(Nc3nc4ccccc4c4occc34)c2)OC1=O (stereo not given) : 5.21 µM (inactive)

###

system: K562; experiment: NCI tumour cell line growth inhibition, 48 h
Calls of active or inactive are those of the source. Cut-off read from the data, not from the text of the source: active = GI50 up to about 1.1 µM and inactive = higher.
reported property: GI50

{"columns": ["compound", "endpoint result"],
 "data": [
  ["Cc1ccc(NC(=O)CC/C(CC(=O)C(C)(C)C)=N\\NC(=O)C[n+]2ccccc2)cc1C", "46.9 µM (inactive)"]
]}

Measured GI50, CC(=O)N1N=C(c2ccc3ccccc3c2O)CC1C(=O)c1ccco1 (stereo not given) : 11.6 µM (inactive)

Measured GI50, Cn1nc2ccc3nccc(N4CCN(CCO)CC4)c3c2n1 : 58.6 µM (inactive)

Measured GI50, O=C(Nc1ccccc1-c1nn(C(=S)Nc2ccccc2)c(=S)n(C(=S)Nc2ccccc2)c1=O)C(F)(F)F : 18.8 µM (inactive)

Measured GI50, Oc1cc(-c2ccc3c(c2)OCO3)nc2cc3c(cc12)OCO3 : 28.8 µM (inactive)

Measured GI50, O=C1Nc2cccc(Cl)c2/C1=C\c1c(Cl)nc2sccn12 : > 100 µM (inactive)

Measured GI50, Nc1ncc2ncn(C3CCC(CO)O3)c2n1 (stereo not given) : > 100 µM (inactive)

Measured GI50, NS(=O)(=O)c1ccccc1C(=O)N/N=C(\c1nc2ccc([N+](=O)[O-])cc2[nH]c1=O)C(O)c1ccc([N+](=O)[O-])cc1 (stereo not given) : 56.5 µM (inactive)

Measured GI50, CC(C(O)Cc1ccccc1)N(C)/N=N/c1ccc([N+](=O)[O-])cc1 (stereo not given) : 27.2 µM (inactive)

Measured GI50, CC(C)(C)CC(C)(C)NCC(O)COc1ccc(C(C)(C)c2ccc(OCC(O)CNC(C)(C)CC(C)(C)C)cc2)cc1 (stereo not given) : 0.244 µM (active)

Measured GI50, CCOC(=O)C(NC(=O)Nc1ccc(C)cc1)(OCC)C(F)(F)F (stereo not given) : > 100 µM (inactive)

Measured GI50, N#CC1=C(S)N(C2OC(CO)C(O)C(O)C2O)C(c2ccccc2)=CC1c1ccco1 (stereo not given) : 42.7 µM (inactive)

Measured GI50, C[C@H]1C(=O)CC[C@]2(C)CCC(C(C)(C)O)CC12O (stereo not given in full) : > 100 µM (inactive)

Measured GI50, COc1ccc(C(=O)Nc2ccccc2)cc1[N+](=O)[O-] : > 100 µM (inactive)

###

The following molecules are shown together with reported GI50 values.
system: BT-549; test: NCI tumour cell line growth inhibition, 48 h
Active and inactive are the calls of the source. Rule as the data show it: active = GI50 up to about 1.1 µM and inactive = higher.

{"columns": ["molecule", "reported property", "endpoint result"],
 "data": [
  ["COc1cc(C2SC(=N)Nc3c2c(C)nn3C(=O)c2ccc(Cl)cc2)ccc1O (stereo not drawn)", "GI50", "> 10 µM (inactive)"],
  ["COc1ccc(-c2csc(Cc3nc4c(Br)cc(Br)cc4c(=O)n3-c3ccc(OC)cc3)n2)cc1", "GI50", "> 100 µM (inactive)"]
]}

Measured GI50, COc1cc(/C=C/C2=NN(c3cccc(S(=O)(=O)O)c3)C3(C2)SCC(=O)N3c2nc3ccccc3s2)cc(OC)c1OC (stereo not drawn) : 42 µM (inactive)

Measured GI50, O=C1Cc2c([nH]c3ccccc23)C2(CC3CCCCN13)OCCO2 (stereo not drawn) : > 100 µM (inactive)

Measured GI50, CC(O)C(O)C(O)C(/C=N\Nc1ccccc1)=N/Nc1ccccc1 (stereo not drawn) : 13.7 µM (inactive)

###

tested on: PC-3; assay: NCI tumour cell line growth inhibition, 48 h
The source made the active and inactive calls. No stated cut-off is given here; in the data, active = GI50 up to about 1.1 µM and inactive = higher.
reported property: GI50

Take a look at these entries with their results.
{"columns": ["molecule", "endpoint result"],
 "data": [
  ["O=C1CCC2(CC1CCSc1ccccc1)OCCO2 (configuration not stated)", "> 100 µM (inactive)"],
  ["COc1cc(C2SC(=N)Nc3c2c(C)nn3C(=O)c2ccc(Cl)cc2)ccc1O (configuration not stated)", "> 10 µM (inactive)"],
  ["Cc1ccc(C2NC(=N)NC3=C2CCOc2c3ccc3ccccc23)cc1 (configuration not stated)", "21.9 µM (inactive)"]
]}

Measured GI50, CCOC(=O)c1[nH]c2nc(SC)nc(NC)c2c1N : > 100 µM (inactive)

Measured GI50, O=S(=O)(/C=C/C=C/[S+]([O-])c1ccccc1)c1ccccc1 (configuration not stated) : > 6.92 µM (inactive)

Measured GI50, C1=C[C@]2(CCC13OCCO3)COc1ccccc12 : 35.8 µM (inactive)

Measured GI50, O=C1Cc2c([nH]c3ccccc23)C2(CC3CCCCN13)OCCO2 (configuration not stated) : > 100 µM (inactive)

Measured GI50, Cc1cc(O)c(-c2cc(O)c(C)cc2O)cc1O : 11.6 µM (inactive)

Measured GI50, CCOC(=O)Cn1c(=O)c(C)cn(COCCO)c1=O : > 100 µM (inactive)

###

system: SK-MEL-2; assay: NCI tumour cell line growth inhibition, 48 h
Activity calls are given as the source filed them. No stated cut-off is given here; in the data, active = GI50 up to about 1.1 µM and inactive = higher.
reported property: GI50

{"columns": ["molecule", "GI50"],
 "data": [
  ["COc1ccc(CC2OC3(CCCCC3)CC3CCCCN32)cc1 (configuration not stated)", "> 100 µM (inactive)"]
]}

Measured GI50, O=C1c2cccc3cc([N+](=O)[O-])cc(c23)C(=O)N1c1ccc(OCCN2CCCC2)cc1 : 24.5 µM (inactive)

Measured GI50, C/C(=N\NC(=O)c1ccncc1)c1ccccc1F : > 10 µM (inactive)

Measured GI50, O=C1[C@@H]2C3C=CC([C@H]4C(=O)N(CO)C(=O)[C@@H]34)[C@@H]2C(=O)N1CO : > 100 µM (inactive)

Measured GI50, CC1OC(n2cc(F)c(=O)[nH]c2=O)C(O[Si](C)(C)C(C)(C)C)C1O[Si](C)(C)C(C)(C)C (configuration not stated) : 16.3 µM (inactive)
